Test: in vitro
Conditions: dog
Reported Endpoint: CC50

Known CC50 results, listed for orientation:
compound="C[C@@H]1O[C@@H](Oc2cc(O)c3c(=O)c(O[C@@H]4O[C@@H](C)[C@H](O)[C@@H](O)[C@H]4O)c(-c4ccc(O)cc4)oc3c2)[C@H](O)[C@H](O)[C@H]1O [Kaempferitrin]" reported_endpoint=CC50 result="> 10000 µg/mL"
compound="CC(=O)N[C@H]1[C@H]([C@H](O)[C@H](O)CO)OC(C(=O)O)=C[C@@H]1N=C(N)N [Zanamivir, reference compound]" reported_endpoint=CC50 result="> 10000 µg/mL"
compound="O=C1C[C@@H](c2ccccc2)Oc2cc(O)cc(O)c21 [Pinocembrin]" reported_endpoint=CC50 result="> 10000 µg/mL"

QUERY: For OC[C@@H](O)[C@@H](O)[C@H](O)[C@@H](O)CO [D-sorbitol] , what is its reported CC50?
RESULT: > 10000 µg/mL

QUERY: For C[C@]12CC[C@@H]3c4ccc(O)cc4CC[C@H]3[C@@H]1CC[C@@H]2O [Estradiol, estradiol, reference compound] , what is its reported CC50?
RESULT: > 5000 µg/mL

Hello, the source for this data is paper PMC9964242, in case you need it.
